# target: Ubiquitin-conjugating enzyme E2 N (Homo sapiens)
# Sequence (P61088 whole entry): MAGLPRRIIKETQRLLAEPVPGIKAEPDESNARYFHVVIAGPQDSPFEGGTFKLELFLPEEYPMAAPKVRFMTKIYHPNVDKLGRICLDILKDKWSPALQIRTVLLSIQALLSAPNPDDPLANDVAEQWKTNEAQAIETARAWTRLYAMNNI
# Format: functional
The source made the active and inactive calls.
Quick reference for IC50 among some compounds

Solved entries (count: 3):
Cc1ccccc1C(=O)N1CCN(c2ccc(NC(=S)NC(=O)c3cccs3)cc2)CC1
15.6 µM (active)
COc1ccc(Cn2c(SCC(=O)NCc3ccco3)nc3ccsc3c2=O)cc1
14.4 µM (active)
FC(F)(F)c1cc(CCN2CCNC[C@H]2Cc2cccc3ccccc23)cc(C(F)(F)F)c1
9.82 µM (active)

For CCC(OCC(O)CN1CCN(CCN2C(=O)c3cccc4cccc(c34)C2=O)CC1)c1ccccc1 (centres undefined) , what is its reported IC50?
9.26 µM (active)

* * *

# target: Apoptotic protease-activating factor 1 (Homo sapiens)
# Sequence (O14727 whole entry): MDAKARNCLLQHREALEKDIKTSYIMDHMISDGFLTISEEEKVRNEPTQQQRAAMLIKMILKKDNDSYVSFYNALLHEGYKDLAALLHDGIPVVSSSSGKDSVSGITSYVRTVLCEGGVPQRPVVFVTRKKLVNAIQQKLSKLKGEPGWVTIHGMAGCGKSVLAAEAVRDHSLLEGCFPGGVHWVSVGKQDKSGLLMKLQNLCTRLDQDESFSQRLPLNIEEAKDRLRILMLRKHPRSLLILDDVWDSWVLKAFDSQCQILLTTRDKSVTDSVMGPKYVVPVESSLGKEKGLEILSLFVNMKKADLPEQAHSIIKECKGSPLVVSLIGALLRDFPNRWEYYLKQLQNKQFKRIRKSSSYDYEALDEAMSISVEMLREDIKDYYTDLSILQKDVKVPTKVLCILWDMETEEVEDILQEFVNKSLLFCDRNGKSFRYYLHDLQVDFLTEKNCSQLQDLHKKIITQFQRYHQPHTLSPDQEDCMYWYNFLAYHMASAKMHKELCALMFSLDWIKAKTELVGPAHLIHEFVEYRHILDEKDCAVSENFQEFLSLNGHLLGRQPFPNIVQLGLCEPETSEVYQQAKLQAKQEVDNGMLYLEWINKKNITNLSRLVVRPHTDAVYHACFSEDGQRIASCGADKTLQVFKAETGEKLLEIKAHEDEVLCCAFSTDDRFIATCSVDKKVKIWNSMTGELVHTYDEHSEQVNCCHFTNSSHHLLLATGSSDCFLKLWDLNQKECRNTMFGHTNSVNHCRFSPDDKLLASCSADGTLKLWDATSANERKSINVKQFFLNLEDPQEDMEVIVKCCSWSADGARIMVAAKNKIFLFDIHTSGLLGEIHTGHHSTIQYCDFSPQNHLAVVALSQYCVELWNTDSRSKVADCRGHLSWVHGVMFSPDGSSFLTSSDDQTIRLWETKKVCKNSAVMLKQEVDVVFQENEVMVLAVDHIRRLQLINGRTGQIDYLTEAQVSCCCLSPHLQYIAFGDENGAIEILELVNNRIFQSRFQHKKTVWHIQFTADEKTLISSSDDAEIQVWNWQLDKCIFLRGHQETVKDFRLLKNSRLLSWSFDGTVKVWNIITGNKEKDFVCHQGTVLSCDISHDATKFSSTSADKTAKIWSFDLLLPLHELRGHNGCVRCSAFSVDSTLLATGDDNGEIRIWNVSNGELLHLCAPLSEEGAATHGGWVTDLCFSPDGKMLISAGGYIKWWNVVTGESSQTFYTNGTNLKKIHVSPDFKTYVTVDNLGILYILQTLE
# Assay type: functional
Active and inactive are the calls of the source.
Answer with one of the outcomes given here: active, inactive

CCCN(CC(=O)Nc1ccccc1C)C(=O)c1sc2ccccc2c1Cl
inactive

Hey, what did the test say about O=C(CCn1c2c(c3ccccc31)CCCC2)NNC(=O)c1ccc([N+](=O)[O-])cc1 ?
active

Try this molecule too: Cc1nc2c(=O)n(C)c(=O)nc-2n(C)n1
active

Try this molecule too: CC(C)(C)C(=O)[C@@H]1[C@@H]2C(=O)N(C3CCCCC3)C(=O)[C@@H]2[C@H]2c3ccccc3C=CN12
active

Try this molecule too: CN(C)c1cc(Cl)c2nonc2c1N
active

Try this molecule too: Oc1nc(Nc2ccccc2Cl)cc2ccccc12
active

* * *

# target: Galanin receptor type 3 (Homo sapiens, UniProt O60755)
# Sequence (O60755 whole entry): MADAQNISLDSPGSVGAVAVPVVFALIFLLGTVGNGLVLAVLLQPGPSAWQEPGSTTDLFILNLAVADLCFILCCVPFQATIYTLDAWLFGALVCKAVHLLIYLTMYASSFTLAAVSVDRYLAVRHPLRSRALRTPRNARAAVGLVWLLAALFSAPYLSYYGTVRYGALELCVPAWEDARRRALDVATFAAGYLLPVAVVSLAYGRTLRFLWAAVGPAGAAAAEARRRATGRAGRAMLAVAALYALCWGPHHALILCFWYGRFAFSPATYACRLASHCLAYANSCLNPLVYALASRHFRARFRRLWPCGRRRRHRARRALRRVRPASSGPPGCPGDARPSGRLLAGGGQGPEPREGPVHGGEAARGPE
# assay-text: Fluorescence-based cell-based primary high throughput dose response assay to identify antagonists of the Galanin Receptor 3 (GalR3).
# Format: functional
The source made the active and inactive calls.
Answer with one of the outcomes given here: active, inactive

The examples below pair each entry with its known result.
O=C1C=C(c2c(O)ccc3ccccc23)c2ccccc2C1=O
active
CC1OC(OC2C=C3CCC4C(CCC5(C)C(c6ccc(=O)oc6)CCC45O)C3(C)CC2)C(O)C(OC2OC(CO)C(O)C(O)C2O)C1O (stereo not given)
inactive
CCOC(=O)Cn1nnnc1C(C(C)C)N(Cc1cccs1)Cc1cc2cc(C)ccc2nc1O (stereo not given)
inactive
C[C@H](NCCc1ccc(O)cc1)[C@H](O)c1ccc(O)cc1
active

Please find the next molecule below.
Hey, what did the test say about FC(F)(F)c1cccc(/C=N/NC(=S)NC2CCCCC2)c1 ?
active

* * *

# target: UniProt P55789
# Sequence (P55789 whole entry): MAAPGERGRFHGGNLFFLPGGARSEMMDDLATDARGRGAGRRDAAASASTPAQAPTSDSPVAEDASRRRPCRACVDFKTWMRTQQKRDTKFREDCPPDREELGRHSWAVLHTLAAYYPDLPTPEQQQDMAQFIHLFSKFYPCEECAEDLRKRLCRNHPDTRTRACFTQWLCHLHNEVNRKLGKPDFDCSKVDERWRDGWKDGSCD
# assay-text: ALR-catalysed DTT oxidation blockers – biochemical, H2O2 detection, luminescence, cherry-pick, dose response (AID 493248)
The source made the active and inactive calls.
Quick reference for AC50 among some molecules

Cc1nc(N)sc1N=Nc1ccc(Br)cc1
0.753 µM (active)
CCCc1cc(C(=O)N2CCCC(Nc3ccc(C)c(C)c3)C2)n(C)n1 (configuration not stated)
3.84 µM (active)
Clc1ccc(N/N=C/c2cccnc2)cc1
0.426 µM (active)

Consider the record given below.
For O=C(NNc1nc2ccccc2s1)c1ccccc1F , what is its reported AC50?
14.2 µM (active)

* * *

# target: Luciferin 4-monooxygenase (Photinus pyralis)
# Sequence (P08659 whole entry): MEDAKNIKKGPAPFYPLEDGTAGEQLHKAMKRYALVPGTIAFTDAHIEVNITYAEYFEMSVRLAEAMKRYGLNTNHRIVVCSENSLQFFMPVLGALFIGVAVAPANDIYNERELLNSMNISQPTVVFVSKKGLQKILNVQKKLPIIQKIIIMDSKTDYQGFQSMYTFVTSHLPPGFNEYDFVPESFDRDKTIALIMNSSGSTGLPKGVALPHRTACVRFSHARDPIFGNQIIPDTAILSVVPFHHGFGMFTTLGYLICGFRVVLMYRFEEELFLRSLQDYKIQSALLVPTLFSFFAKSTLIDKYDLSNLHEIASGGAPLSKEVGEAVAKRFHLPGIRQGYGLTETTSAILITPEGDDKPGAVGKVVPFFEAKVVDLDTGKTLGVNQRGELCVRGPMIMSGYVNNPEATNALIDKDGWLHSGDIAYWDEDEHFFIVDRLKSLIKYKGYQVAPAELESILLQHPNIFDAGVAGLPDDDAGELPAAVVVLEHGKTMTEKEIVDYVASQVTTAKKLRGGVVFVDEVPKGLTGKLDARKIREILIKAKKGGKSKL
# assay-text: inhibition of purified Photinus pyralis luciferase – biochemical, luminescence, dose response (AID 1891)
Activity calls are given as the source filed them.
measured-property: EC50

Solved entries (count: 5):
Cc1ccc(N2C(=O)c3ccccc3C2O)nc1 (configuration not stated)
6.56 µM (active)
S=C(NCC1CC1)N/N=C/c1ccccc1Cl
> 112 µM (not active)
COc1ccc(C(=O)Nc2ccccc2C(=O)N/N=C/c2ccncc2)cc1OC
0.609 µM (active)
COc1cc2c(cc1OC)C(/C=C(\O)c1ccc(NC(C)=O)cc1)=NCC2
> 112 µM (not active)
COC(=O)/C=C\C(=O)Nc1cccc([N+](=O)[O-])c1
> 112 µM (not active)

Consider the record given below.
What value of EC50 on Luciferin 4-monooxygenase (Photinus pyralis) does Cc1ccc(-c2nc3ccccc3[nH]2)s1 have?
0.951 µM (active)

* * *

Quick reference for EC50 among some molecules
# target: UniProtKB P47898
# Sequence (P47898 whole entry): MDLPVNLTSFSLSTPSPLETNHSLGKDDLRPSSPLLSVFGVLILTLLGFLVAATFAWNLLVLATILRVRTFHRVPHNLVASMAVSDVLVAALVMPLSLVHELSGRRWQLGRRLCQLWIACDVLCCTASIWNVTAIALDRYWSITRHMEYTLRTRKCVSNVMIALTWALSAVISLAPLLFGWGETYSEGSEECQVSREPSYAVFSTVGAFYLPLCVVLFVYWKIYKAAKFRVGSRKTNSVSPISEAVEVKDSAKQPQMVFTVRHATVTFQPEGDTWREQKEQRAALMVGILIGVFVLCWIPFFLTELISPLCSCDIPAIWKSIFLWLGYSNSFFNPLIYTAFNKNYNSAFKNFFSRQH
# assay-text: Counterscreen for agonists of OPRM1-OPRD1 heterodimerization: luminescence-based cell-based high throughput dose response assay to identify agonists of 5-hydroxytryptamine (serotonin) 5A receptor (HTR5A). [Related pubchem assays (depositor defined):AID504326, AID504355, AID504692, AID504904, AID504905]
# Assay type: functional
Activity calls are given as the source filed them.

COc1ccc(C(C(=O)NC2CCCCC2)N(C(=O)Cc2c[nH]c3ccccc23)c2ccc(NC(C)=O)cc2)cc1OC (centres undefined)
> 92.5 µM (inactive)
COC(=O)c1cc2c(n1S(=O)(=O)c1ccc(C)cc1)C(=O)C(=O)c1[nH]cc(C(=O)OCc3ccccc3)c1-2
> 92.4 µM (inactive)

What value of EC50 on UniProtKB P47898 does Brc1ccc(NC2=Nc3ccccc3CC2)cc1 have?
> 92.5 µM (inactive)

Try this molecule too: O=C1C=C(c2c(O)ccc3ccccc23)c2ccccc2C1=O
> 92.4 µM (inactive)

* * *

# target: UniProtKB P41145
# Sequence (P41145 whole entry): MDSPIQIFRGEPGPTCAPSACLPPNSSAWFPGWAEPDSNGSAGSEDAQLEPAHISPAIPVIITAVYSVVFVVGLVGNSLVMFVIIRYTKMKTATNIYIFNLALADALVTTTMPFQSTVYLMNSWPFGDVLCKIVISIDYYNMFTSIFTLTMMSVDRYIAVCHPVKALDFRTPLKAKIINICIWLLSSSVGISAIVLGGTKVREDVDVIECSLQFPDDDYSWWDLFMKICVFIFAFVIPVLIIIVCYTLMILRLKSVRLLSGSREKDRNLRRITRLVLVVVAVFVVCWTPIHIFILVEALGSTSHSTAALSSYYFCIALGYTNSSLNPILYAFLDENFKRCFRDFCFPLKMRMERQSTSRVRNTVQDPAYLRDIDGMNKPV
# Format: functional
pEC50: −log10 of the molar value.
measured-property: pEC50

For O=C(c1ccc([N+](=O)[O-])cc1)N(Cc1ccc(Br)cc1)N1C(=O)CCCC1=O , what is its reported pEC50?
< 4.46
